Quick reference for LC retention time among some compounds
- experiment_summary: RP, 150 × 2.1 mm, 2.6 µm, 40 °C, 0.35 mL/min, estimated dead time 0.94 min; A: water + 0.1% formic acid, pH 3; B: acetonitrile + 0.1% formic acid, pH 3; gradient (min/%B) 0/0 1/0 12.5/100 14/100 14.2/0 15/0
- applied_conditions: stereoisomer not certain
test_readout: LC retention time (min)

>  <compound>
O=C(CCc1ccc(O)cc1)c1c(O)cc(O)cc1O

>  <display_unit>
min

>  <measured_number>
7.51

$$$$
>  <compound>
O=C(O)CNC(=O)c1ccc(O)cc1 [4-Hydroxyhippuric acid]

>  <display_unit>
min

>  <measured_number>
3.82

$$$$
>  <compound>
COc1cc(/C=C/C(=O)O)ccc1O

>  <display_unit>
min

>  <measured_number>
5.86

$$$$
>  <compound>
NCC(=O)c1ccccc1

>  <display_unit>
min

>  <measured_number>
6.84

$$$$
>  <compound>
O=C(O)CNC(=O)c1ccco1

>  <display_unit>
min

>  <measured_number>
2.51

$$$$
>  <compound>
Oc1cc(O)c2c(c1)OC(c1cc(O)c(O)c(O)c1)C(O)C2 (single isomer, unassigned; (-)) [(-)-Epigallocatechin]

>  <display_unit>
min

>  <measured_number>
4.2

$$$$
>  <compound>
COc1cc(C=CC(=O)O)cc(OC)c1OC

>  <display_unit>
min

>  <measured_number>
7.02

$$$$
>  <compound>
O=c1cc(-c2ccc(O)c(O)c2)oc2cc(O)cc(O)c12

>  <display_unit>
min

>  <measured_number>
7.14

$$$$
>  <compound>
COc1cc(C(=O)O)ccc1O

>  <display_unit>
min

>  <measured_number>
3.6

$$$$

Measured values drawn from the RepoRT retention time repository (doi:10.1016/j.foodchem.2021.129757) for this set.
